# Assayed System: human EGFR (Homo sapiens (Human), UniProt P00533)
# Sequence (P00533 668-1210): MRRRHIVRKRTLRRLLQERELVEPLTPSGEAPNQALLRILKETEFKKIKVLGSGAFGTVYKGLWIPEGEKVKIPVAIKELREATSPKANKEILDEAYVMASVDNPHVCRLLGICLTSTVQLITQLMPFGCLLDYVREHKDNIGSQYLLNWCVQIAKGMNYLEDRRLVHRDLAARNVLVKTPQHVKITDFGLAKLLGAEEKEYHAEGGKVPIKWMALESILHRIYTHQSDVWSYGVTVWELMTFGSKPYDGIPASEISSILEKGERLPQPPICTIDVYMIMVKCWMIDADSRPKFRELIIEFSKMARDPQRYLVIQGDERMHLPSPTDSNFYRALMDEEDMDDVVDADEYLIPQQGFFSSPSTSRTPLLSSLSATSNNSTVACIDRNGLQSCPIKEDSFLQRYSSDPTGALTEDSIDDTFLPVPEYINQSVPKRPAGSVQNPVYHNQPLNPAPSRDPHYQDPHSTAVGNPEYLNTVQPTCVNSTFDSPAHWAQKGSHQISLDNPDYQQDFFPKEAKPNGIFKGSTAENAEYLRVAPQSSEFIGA
# Measurement Description: EGFR LANTHASCREEN Eu Kinase Binding Assay
# Condition Context: IC50 value ± standard deviation; truncated GST-labeled EGFR, kinase tracer 199; read-out: hEGFR Rel IC50
Catalogue of pIC50 values
Keep it numeric: pIC50 is minus log10 of the concentration in mol/L.

{"columns": ["Compound", "pIC50"],
 "data": [
  ["CN(C)C/C=C/C(=O)N1CCC(Nc2cncc(-c3cnc(Oc4cccc(Cl)c4)nc3)n2)CC1", 4.28],
  ["C=CC(=O)N1CC(Nc2cncc(-c3cnc(Oc4cccc(F)c4)nc3)n2)C1", 5.80],
  ["C=CC(=O)N1CC[C@H](Nc2cncc(-c3cnc(Nc4cccc(OC(F)F)c4)nc3)n2)C1", 5.84]
]}

Qu. Data request, read-out pIC50, for C=CC(=O)N1CC(Nc2cncc(-c3cnc(Nc4cccc(C)n4)nc3)n2)C1
Ans. 7.26

Qu. Data request, read-out pIC50, for C=CC(=O)N1C[C@@H](Nc2cncc(-c3cnc(Oc4cccc(Cl)c4)nc3)n2)[C@@H]1C (single isomer, unassigned; isomer 1)
Ans. 6.71

Qu. Data request, read-out pIC50, for C=CC(=O)N1CCC(Nc2cncc(-c3cnc(Nc4ccccn4)nc3)c2)CC1
Ans. 5.47

Qu. Data request, read-out pIC50, for C=CC(=O)N1CC(Nc2cncc(-c3cnc(Oc4cccc(C(F)(F)F)c4)nc3)n2)C1
Ans. 5.39

Qu. Data request, read-out pIC50, for C=CC(=O)N1CC(Nc2cncc(-c3cnc(Nc4cccc(OC(F)(F)F)c4)nc3)n2)C1
Ans. 6.51

----------
Catalogue of % paw thickness AUC (mm) ± SE values
# Test system: type II collagen-induced arthritis (CIA) rat model
# Measurement Description: Rat In Vivo Collagen-Induced Arthritis Assay
# Set-up: species or system Female Lewis rats
# Condition Context: CIA rats, 3 mg/kg/d oral, 9 days
Report as a plain number; the unit mm is understood.

Here is how some compounds turned out for % paw thickness AUC (mm) ± SE.
{"columns": ["Compound", "% paw thickness AUC (mm) ± SE"],
 "data": [
  ["C=CC(=O)N1CC[C@H](Nc2cncc(-c3cnc(Oc4cccc(OC(F)F)c4)nc3)c2)C1 [Example 5]", 67.18],
  ["C=CC(=O)N1CC(Nc2cncc(-c3cnc(Oc4cccc(OC(F)F)c4)nc3)n2)C1 [Example 24]", 61.43],
  ["C=CC(=O)N1CC(Nc2cncc(-c3cnc(Oc4cccc(Cl)c4)nc3)n2)C1 [Example 31]", 63.70],
  ["C=CC(=O)N1CC(Nc2cncc(-c3cnc(Oc4cccc(OC(F)(F)F)c4)nc3)n2)C1 [Example 27]", 69.58],
  ["C=CC(=O)N1CCC(Nc2cncc(-c3cnc(Oc4cccc(Cl)c4)nc3)c2)CC1 [Example 1]", 63.4]
]}

Next compound, please.
Qu. Data request, read-out % paw thickness AUC (mm) ± SE, for C=CC(=O)N1CC[C@H](Nc2cncc(-c3cnc(Nc4cccc(OC(F)(F)F)c4)nc3)n2)C1 [Example 33]
Ans. 67.00

----------
# Assayed System: human EGFR (Homo sapiens (Human), UniProt P00533)
# Measurement Description: EGFR LANTHASCREEN Eu Kinase Binding Assay
# Condition Context: IC50 value ± standard deviation; truncated GST-labeled EGFR, kinase tracer 199; read-out: hEGFR Rel IC50
Property Measured: pIC50
Keep it numeric: pIC50 is minus log10 of the concentration in mol/L.

{"columns": ["Compound", "pIC50"],
 "data": [
  ["C=CC(=O)N1CC(Nc2cncc(-c3cnc(Oc4cccc(C(F)(F)F)c4)nc3)c2)C1", 6.14]
]}

Qu. Data request, read-out pIC50, for C=CC(=O)N1CC(Nc2cncc(-c3cnc(Oc4ccc(F)c(Cl)c4)nc3)c2)C1
Ans. 6.35

Qu. Data request, read-out pIC50, for CN(C)C/C=C/C(=O)N1CCC(Nc2cncc(-c3cnc(Nc4cccc(Cl)c4)nc3)c2)CC1
Ans. 4.58

Qu. Data request, read-out pIC50, for C=CC(=O)N1CC[C@H](Nc2cncc(-c3cnc(Nc4cccc(Cl)c4)nc3)n2)C1
Ans. 6.19

----------
Catalogue of bioavailability values
# Measurement Description: Rat Oral Bioavailability
# Format: in vivo, Sprague-Dawley rats
# Condition Context: Sprague-Dawley, plasma, PO 3 mg/kg vs IV 1 mg/kg, read-out: Rat Oral Bioavailability (% F)
Report as a plain number; the unit % is understood.

{"columns": ["Compound", "bioavailability (%)"],
 "data": [
  ["C=CC(=O)N1CC[C@H](Nc2cncc(-c3cnc(Oc4cccc(OC(F)F)c4)nc3)c2)C1 [Example 5]", 36.6],
  ["C=CC(=O)N1CCC(Nc2cncc(-c3cnc(Nc4cccc(Cl)c4)nc3)c2)CC1 [Example 19]", 79.2],
  ["C=CC(=O)N1CC(Nc2cncc(-c3cnc(Oc4cccc(OC(F)F)c4)nc3)n2)C1 [Example 24]", 41],
  ["C=CC(=O)N1CC(Nc2cncc(-c3cnc(Oc4cccc(Cl)c4)nc3)n2)C1 [Example 31]", 54.1],
  ["C=CC(=O)N1CCC(Nc2cncc(-c3cnc(Oc4cccc(Cl)c4)nc3)n2)CC1 [Example 44]", 36.8],
  ["C=CC(=O)N1CCC(Nc2cncc(-c3cnc(Oc4cccc(Cl)c4)nc3)c2)CC1 [Example 1]", 74]
]}

Qu. Data request, read-out bioavailability, for C=CC(=O)N1CC[C@H](Nc2cncc(-c3cnc(Nc4cccc(OC(F)(F)F)c4)nc3)n2)C1 [Example 33]
Ans. 44.6

Qu. Data request, read-out bioavailability, for C=CC(=O)N1CC(Nc2cncc(-c3cnc(Oc4cccc(OC(F)(F)F)c4)nc3)n2)C1 [Example 27]
Ans. 38.4

----------
# Test system: type II collagen-induced arthritis (CIA) rat model
# Measurement Description: Rat In Vivo Collagen-Induced Arthritis Assay
# Set-up: species or system Female Lewis rats
# Condition Context: CIA rats, 1 mg/kg/d oral, 9 days
Property Measured: % paw thickness AUC (mm) ± SE
Report as a plain number; the unit mm is understood.

Here is how some compounds turned out for % paw thickness AUC (mm) ± SE.
{"columns": ["Smiles Structure", "Assayed System", "Property Measured", "Unit Info", "Recorded Measurement"],
 "data": [
  ["C=CC(=O)N1CCC(Nc2cncc(-c3cnc(Oc4cccc(Cl)c4)nc3)c2)CC1", "type II collagen-induced arthritis (CIA) rat model", "% paw thickness AUC (mm) ± SE", "mm", 69.6],
  ["C=CC(=O)N1CC[C@H](Nc2cncc(-c3cnc(Nc4cccc(OC(F)(F)F)c4)nc3)n2)C1", "type II collagen-induced arthritis (CIA) rat model", "% paw thickness AUC (mm) ± SE", "mm", 68.32],
  ["C=CC(=O)N1CC[C@H](Nc2cncc(-c3cnc(Oc4cccc(OC(F)F)c4)nc3)c2)C1", "type II collagen-induced arthritis (CIA) rat model", "% paw thickness AUC (mm) ± SE", "mm", 71.68]
]}

Qu. Write down the reported % paw thickness AUC (mm) ± SE of C=CC(=O)N1CC(Nc2cncc(-c3cnc(Oc4cccc(Cl)c4)nc3)n2)C1 , test system: type II collagen-induced arthritis (CIA) rat model.
Ans. 66.10

Qu. Write down the reported % paw thickness AUC (mm) ± SE of C=CC(=O)N1CC(Nc2cncc(-c3cnc(Oc4cccc(OC(F)F)c4)nc3)n2)C1 , test system: type II collagen-induced arthritis (CIA) rat model.
Ans. 65.04

Qu. Write down the reported % paw thickness AUC (mm) ± SE of C=CC(=O)N1CC(Nc2cncc(-c3cnc(Oc4cccc(OC(F)(F)F)c4)nc3)n2)C1 , test system: type II collagen-induced arthritis (CIA) rat model.
Ans. 73.30

----------
As an illustration, consider measured IC50 for compounds on human BTK (Homo sapiens (Human)).
Sequence (Q06187 whole entry): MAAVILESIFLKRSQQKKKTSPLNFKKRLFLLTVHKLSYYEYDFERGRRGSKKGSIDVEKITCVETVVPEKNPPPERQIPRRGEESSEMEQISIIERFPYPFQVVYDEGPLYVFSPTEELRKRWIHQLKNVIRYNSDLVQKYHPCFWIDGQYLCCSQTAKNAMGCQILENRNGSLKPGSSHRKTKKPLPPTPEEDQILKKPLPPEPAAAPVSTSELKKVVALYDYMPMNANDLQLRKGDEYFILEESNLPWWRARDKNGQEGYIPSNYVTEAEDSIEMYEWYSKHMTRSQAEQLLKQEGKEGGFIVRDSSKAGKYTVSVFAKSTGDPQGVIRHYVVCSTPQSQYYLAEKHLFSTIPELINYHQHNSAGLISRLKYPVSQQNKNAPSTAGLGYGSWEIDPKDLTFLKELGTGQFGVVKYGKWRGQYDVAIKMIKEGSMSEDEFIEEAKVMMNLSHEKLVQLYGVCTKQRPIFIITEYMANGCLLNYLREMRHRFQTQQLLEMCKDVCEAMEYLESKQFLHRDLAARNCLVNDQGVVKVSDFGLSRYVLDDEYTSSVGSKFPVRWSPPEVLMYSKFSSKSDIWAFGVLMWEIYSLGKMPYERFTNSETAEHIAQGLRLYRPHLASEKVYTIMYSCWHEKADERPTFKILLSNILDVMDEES

Here is how some compounds turned out for IC50.
{"columns": ["Smiles Structure", "Assayed System", "IC50"],
 "data": [
  ["C=CC(=O)N1CC(Nc2cncc(-c3cnc(Nc4cccc(C(F)(F)F)c4)nc3)c2)C1", "human BTK (Homo sapiens (Human))", "< 5 nM"],
  ["CN(C)C/C=C/C(=O)N1CCC(Nc2cncc(-c3cnc(Nc4cccc(Cl)c4)nc3)n2)CC1", "human BTK (Homo sapiens (Human))", "< 5 nM"]
]}

Next compound, please.
Qu. Write down the reported IC50 of C=CC(=O)N1CC(Nc2cncc(-c3cnc(Nc4ccccc4OC(F)(F)F)nc3)n2)C1 , test system: human BTK (Homo sapiens (Human)).
Ans. < 5 nM

----------
# Assayed System: human EGFR (Homo sapiens (Human))
# Measurement Description: EGFR LANTHASCREEN Eu Kinase Binding Assay
# Condition Context: IC50 value ± standard deviation; truncated GST-labeled EGFR, kinase tracer 199; read-out: hEGFR Rel IC50
# Procedure: BTK and EGFR in Vitro Assays: The BTK and EGFR biochemical assays utilize LANTHASCREEN® Eu Kinase Binding Assays from Thermo Fisher Scientific, measuring the binding of the kinase with a fluorinated tracer. […] The components of the assay (compound, enzyme/antibody, tracer) are assembled and incubated for 30 min prior to being read on a Perkin-Elmer EnVision with excitation at 340 nm, tracer emission at 665 nm, and antibody emission at 615 nm. […]
# IC50 binned as low group = under 500 nM, middle group = from 500 nM up to 2000 nM, high group = 2000 nM and over

{"columns": ["Molecule", "Assigned Category"],
 "data": [
  ["C=CC(=O)N1CC[C@H](Nc2cncc(-c3cnc(Nc4cccc(Cl)c4)nc3)c2)C1", "middle group"],
  ["C=CC(=O)N1CCC(Nc2cncc(-c3cnc(Nc4cccc(C(F)(F)F)n4)nc3)c2)CC1", "high group"],
  ["C=CC(=O)N1CCC(Nc2cncc(-c3cnc(Oc4cccc(OC(F)F)c4)nc3)n2)CC1", "middle group"],
  ["C=CC(=O)N1CCC(Nc2cncc(-c3cnc(Oc4cccc(Cl)c4)nc3)n2)CC1", "low group"]
]}

Qu. Which category fits this record: C=CC(=O)N1CC(Nc2cncc(-c3cnc(Nc4cccc(C(F)(F)F)c4)nc3)c2)C1
Ans. low group

Qu. Which category fits this record: C=CC(=O)N1CC[C@H](Nc2cncc(-c3cnc(Oc4cccc(Cl)c4)nc3)c2)C1
Ans. high group

Qu. Which category fits this record: C=CC(=O)N1CC(Nc2cncc(-c3cnc(Oc4cccc(OC(F)(F)F)c4)nc3)n2)C1
Ans. high group

Qu. Which category fits this record: C=CC(=O)N1CCC(Nc2cncc(-c3cnc(Nc4cccc(Cl)c4)nc3)c2)CC1
Ans. middle group

Qu. Which category fits this record: C=CC(=O)N1CC(Nc2cncc(-c3cnc(Oc4ccc(F)c(OC(F)F)c4)nc3)c2)C1
Ans. high group

Qu. Which category fits this record: C=CC(=O)N1CC(Nc2cncc(-c3cnc(Nc4ccc(F)c(Cl)c4)nc3)n2)C1
Ans. low group

Qu. Which category fits this record: C=CC(=O)N1CC(Nc2cncc(-c3cnc(Oc4cccc(F)c4)nc3)c2)C1
Ans. middle group

Qu. Which category fits this record: C=CC(=O)N1CC(C)(Nc2cncc(-c3cnc(Oc4cccc(Cl)c4)nc3)n2)C1
Ans. high group
